# Tested on: RXF 393 renal
# ASSAY_METHOD_TEXT: NCI tumour cell line growth inhibition, 48 h

| MOLECULE | TGI |
| --- | --- |
| C=C(C)[C@@H]1CC[C@]2(C)[C@H](CC[C@@H]3[C@@H]([C@@](C)(O)CCC=C(C)C)CC[C@]32C)[C@@]1(C)CCC(=O)N1CCN(C)CC1 | 16.4 µM |
| Nc1c(C(=O)c2cccc(-c3ccncc3)c2)cnn1-c1ccc(F)cc1 | > 25 µM |
| NC(=O)c1ccc(NCC2=CC(=O)C=CC2=O)cc1 | 41 µM |
| CC1CN=C(c2cccc(-c3ccc(-c4ccccc4)o3)c2)N1 (stereo unspecified) | 3.36 µM |
| Cc1ccc2cc3cccc(C(=O)NCCN(C)C)c3nc2c1 | 2.73 µM |
| Nc1nc2c(ncn2C2C=CC(COS(N)(=O)=O)C2)c(=O)[nH]1 (stereo unspecified) | > 100 µM |

----------
# System: OVCAR-5 ovarian
# ASSAY_METHOD_TEXT: NCI tumour cell line growth inhibition, 48 h
Recorded TGI values for a group of compounds are listed next.

| COMPOUND_SMILES | TGT | UNIT_OF_MEASUREMENT | CMP | TGI |
| --- | --- | --- | --- | --- |
| c1ccc(-c2nc([P+](c3ccccc3)(c3ccccc3)c3ccccc3)c(N3CCOCC3)o2)cc1 | OVCAR-5 ovarian | µM | = | 12.8 |
| O=C(O)CCC(=O)N1C/C(=C\c2ccccc2)C(=O)/C(=C/c2ccccc2)C1 | OVCAR-5 ovarian | µM | = | 28.3 |
| Cc1cc(NS(=O)(=O)c2ccc(NC(=O)c3ccc(Cl)c4c(Nc5ccc(S(N)(=O)=O)cc5)c5ccccc5nc34)cc2)no1 | OVCAR-5 ovarian | µM | = | 56.7 |
| COc1ccc(O)c2c(=O)ccccc12 | OVCAR-5 ovarian | µM | > | 100 |

----------
# Test system: 786-0 renal
# ASSAY_METHOD_TEXT: NCI tumour cell line growth inhibition, 48 h
Recorded TGI values for a group of compounds are listed next.

| COMPOUND | CMP | TGI [µM] |
| --- | --- | --- |
| FC(F)(F)c1ccc(C2=N/S(c3ccccc3)=N\C(c3ccc(C(F)(F)F)cc3)=N/S(c3ccccc3)=N\2)cc1 (centres undefined) | > | 100 |
| COc1ccc2[nH]c(Cl)c(/C=C3/C(=O)N(c4ccccc4)c4ccccc43)c2c1 | = | 20.9 |
| COC(=O)[C@@H](C)C[C@H](Cc1ccccc1)NC(=O)c1nc([C@@H](C[C@H](C(C)C)N(C)C(=O)[C@@H](NC(=O)[C@H]2CCCCN2C)C(C)C)OC(C)=O)sc1C(C)C | = | 1.06 |
| COc1ccc(CCCNC(=O)Cc2ccccc2CO)cc1OC | > | 100 |

----------
Recorded TGI values for a group of compounds are listed next.
# System: MALME-3M melanoma
# ASSAY_METHOD_TEXT: NCI tumour cell line growth inhibition, 48 h

| COMPOUND | TGT | TGI |
| --- | --- | --- |
| C=CCCC1CCCCNC1=S (stereo not drawn) | MALME-3M melanoma | > 10 µM |
| CC1(C)OC(CCC#N)CN1C(=O)OCc1ccccc1 (stereo not drawn) | MALME-3M melanoma | > 100 µM |
| CC(CO)(CO)N1C(=O)C2C3c4ccccc4C(c4ccccc43)C2C1=O (stereo not drawn) | MALME-3M melanoma | > 100 µM |

----------
Recorded TGI values for a group of compounds are listed next.
# System: HL-60(TB) leukemia
# ASSAY_METHOD_TEXT: NCI tumour cell line growth inhibition, 48 h
MEASUREMENT_NAME: TGI

| COMPOUND | MEASUREMENT_NAME | OBSERVED_RESULT |
| --- | --- | --- |
| N#Cc1c(N)c2c(c(-c3ccccc3)c1-c1ccccc1)C(=O)N(NC(=S)Nc1ccccc1)C2=O | TGI | > 100 µM |
| CC1[C@@H]2CC=C3C4CCC5Cc6nc7c(nc6C[C@@]5(C)C4CC(=O)[C@]32CO[C@@]1(O)C(O)CC(C)(C)O)CC1CCC2C3=C[C@H]4O[C@@]5(O[C@@](C)(CO)C[C@@H]5O)C(C)[C@@]4(O)[C@]3(C)[C@@H](O)CC2[C@]1(C)C7 (some centres undefined) | TGI | 0.0581 µM |
| CCCCCCCCCCCCCCCCCCNc1nc(=O)n(C2CC(O)C(COP(=O)(O)OCC(COP(=O)(O)OC3C(CO)OC(n4ccc(N)nc4=O)C3O)OCCCCCCCCCCCCCCCCCC)O2)cc1F (centres undefined) | TGI | > 100 µM |
| CCOC(=O)C#Cc1c(C(=O)OCC)nnn1Cc1ccc(C(F)(F)F)cc1 | TGI | 3.85 µM |
| C=C[C@]1(C)C[C@@H](OC(=O)CO)[C@@]2(C)[C@H](C)CC[C@]3(CCC(=O)[C@H]32)[C@@H](C)[C@@H]1O | TGI | > 100 µM |
| Clc1ccc(Cc2nc3cc(Cl)ccc3o2)cc1 | TGI | > 100 µM |
| Nc1ncnc2c1ncn2C1OC(CO)C2OC21 (centres undefined) | TGI | > 100 µM |
| CC(C)CNC(=O)c1ccc(NC(=O)N(CC(C)C)C(=O)c2ccc(N)c(OCCCN)c2)c(OCCCN=C(N)N)c1 | TGI | > 62.5 µM |
| COc1cccc(-n2ncc3c(N/N=C/c4cccc(F)c4)ncnc32)c1 | TGI | > 25 µM |

----------
Recorded TGI values for a group of compounds are listed next.
# Test system: IGROV1 ovarian
# ASSAY_METHOD_TEXT: NCI tumour cell line growth inhibition, 48 h

| COMPOUND_SMILES | TGT | TGI |
| --- | --- | --- |
| c1ccc(-c2cn3nc(N4CCOCC4)sc3n2)cc1 | IGROV1 ovarian | > 100 µM |
| O=C1CCC[C@]2(CCCC(=O)N2)C1 | IGROV1 ovarian | > 100 µM |
| CN(C)c1ccc(N=Nc2ccc(Br)cn2)c(O)c1 | IGROV1 ovarian | > 100 µM |

----------
# Test system: SNB-19 CNS
# ASSAY_METHOD_TEXT: NCI tumour cell line growth inhibition, 48 h

| COMPOUND | TGT | TGI |
| --- | --- | --- |
| O=C(O)C1(Cc2ccccc2)Cc2ccccc2C1 | SNB-19 CNS | > 100 µM |
| O=c1cc(O)ccn1C1C=C(CO)C(O)C1O (centres undefined) | SNB-19 CNS | > 625 µM |
| Cc1cc(C)c(-n2c(-c3ccccc3)cs/c2=N\N=C2C=C(C(C)(C)C)C(=O)C(C(C)(C)C)=C2)c(C)c1 | SNB-19 CNS | > 100 µM |
| CC(C)CNC(=O)c1ccc(NC(=O)N(CC(C)C)C(=O)c2ccc(N)c(OCCCN)c2)c(OCCCN=C(N)N)c1 | SNB-19 CNS | > 62.5 µM |

----------
# System: SNB-75 CNS
# ASSAY_METHOD_TEXT: NCI tumour cell line growth inhibition, 48 h

| COMPOUND | TGI |
| --- | --- |
| CC(=O)O[C@H]1[C@@H]2OC(=O)C3(CC3)C2C[C@H]2O[C@]2(C)CC/C=C(\C)CCC[C@@H]1C (stereo partly drawn) | > 100 µM |
| O=C1CCC[C@]2(CCCC(=O)N2)C1 | > 100 µM |
| NC(CCCNCc1ccccc1)C(=O)O (stereo not drawn) | > 100 µM |

----------
# Tested on: NCI-H23 lung
# ASSAY_METHOD_TEXT: NCI tumour cell line growth inhibition, 48 h

| COMPOUND | GI50 |
| --- | --- |
| CN(C)c1ccc(N=Nc2ccc(Br)cn2)c(O)c1 | 1.13 µM |
| CCN1C2=C(SC(=S)C1=C1SC(C(=O)OC)=C(C(=O)OC)S1)SC(=Nc1ccc(OC)cc1)C2=O | 2.27 µM |
| C1CCC(C(CC2CCCCN2)C2CCCCC2)CC1 (centres undefined) | 1.72 µM |
| C=C1C(=O)O[C@H]2[C@H]1CC/C(COC(=O)NCc1c[nH]c3ccc(Br)cc13)=C\CC[C@@]1(C)O[C@@H]21 | 1.66 µM |

----------
# Test system: SF-295 CNS
# ASSAY_METHOD_TEXT: NCI tumour cell line growth inhibition, 48 h

| COMPOUND | TGI |
| --- | --- |
| [O-][n+]1c2cc3c(cc2[n+]([O-])c2c(O)cccc21)CN(CCN1CCOCC1)C3 | 40 µM |
| CCCC12Cc3c(OC)ccc(OC)c3CC(Cc3c(OC)ccc(OC)c31)C2=O (configuration not stated) | > 100 µM |
| Cc1oc2nc[nH]c(=O)c2c1C(=O)/C=C/c1ccc(Br)cc1 | 15 µM |
| CCc1cccc(C)c1NC(=O)CCc1nnc(SC)o1 | > 100 µM |
| S=c1nc(COc2ccc(Cl)cc2)[nH][nH]1 | > 100 µM |
| C[C@@]1(O)C2C3CC4C5C3C1[C@](O)(C42)[C@H]5Br (some centres not stated) | > 100 µM |
| COc1ccc(C=C2C(=O)NC(=S)NC2=O)c2ccccc12 | > 100 µM |
